Listing of entries alongside the reported activity at 10 µM.
biological target: CYP1A2 (Homo sapiens, UniProt P05177); assay: Inhibition of CYP1A2 in human liver microsomes assessed as remaining activity by measuring phenacetin O-deethylase activity at 10 uM pre-incubated for 5 mins followed by NADPH regenerating system addition by LC-MS/MS analysis relative to control; type: ADME; settings: probe phenacetin (O-deethylation), read-out: Activity
Sequence (P05177 whole entry): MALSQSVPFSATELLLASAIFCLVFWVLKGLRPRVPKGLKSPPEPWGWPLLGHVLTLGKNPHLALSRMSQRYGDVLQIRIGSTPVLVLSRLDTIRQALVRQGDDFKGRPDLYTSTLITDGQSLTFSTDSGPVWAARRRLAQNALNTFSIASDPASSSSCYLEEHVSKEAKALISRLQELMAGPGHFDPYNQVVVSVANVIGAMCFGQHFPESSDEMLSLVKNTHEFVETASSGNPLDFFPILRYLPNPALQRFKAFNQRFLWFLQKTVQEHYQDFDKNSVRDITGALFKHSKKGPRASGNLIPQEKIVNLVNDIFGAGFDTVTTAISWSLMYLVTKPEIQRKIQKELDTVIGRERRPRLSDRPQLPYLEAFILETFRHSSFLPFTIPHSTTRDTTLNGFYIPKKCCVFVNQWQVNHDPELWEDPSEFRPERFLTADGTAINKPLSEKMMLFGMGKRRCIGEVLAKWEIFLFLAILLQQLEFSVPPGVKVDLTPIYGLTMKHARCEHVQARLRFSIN
Property: activity at 10 µM

# Sample Smiles, Property, Reported
records = [
    ("CN(C)CCOc1ccc(/C(=C(/CCCF)c2ccccc2)c2ccc(O)cc2)cc1.Cl", "activity at 10 µM", "> 100%"),
    ("CN(C)CCOc1ccc(/C(=C(/CCCO)c2ccccc2)c2ccc(Br)cc2)cc1.Cl", "activity at 10 µM", "> 100%"),
    ("Cc1ccc(/C(=C(\\CCCO)c2ccccc2)c2ccc(OCCN(C)C)cc2)cc1.Cl", "activity at 10 µM", "> 100%"),
]
